Hello, the source for this data is patent US20240027479A1, in case you need it.

# PROTOCOL DESCRIPTION: Stability of target analytes in the breath collection device
# Assay type: physicochemical
# STATED CONDITIONS: Day 7, breath collection device
RECORDED ENDPOINT: Analyte Stability (%) at Room Temperature (20-25° C.)
Give bare numbers, in %.

Example results:
CCCCCc1cc(O)c2c(c1)OC(C)(CCC=C(C)C)C=C2 (stereo not drawn) [CBC, cannabichromene] | 89.1
CCCCCc1cc(O)c(C/C=C(\C)CCC=C(C)C)c(O)c1C(=O)O [CBGA, cannabigerolic acid] | 110.9
CCCCCc1cc(O)c2c(c1)OC(C)(C)c1ccc(C)cc1-2 [CBN, cannabinol] | 100.0
CCCc1cc(O)c2c(c1)OC(C)(C)[C@@H]1CCC(C)=C[C@@H]21 [Δ^9-THCV, Δ^9-tetrahydrocannabivarin] | 68.1

Consider the following items and state reported Analyte Stability (%) at Room Temperature (20-25° C.) for each.
1. CCCCCc1cc(O)c2c(c1)OC(C)(C)[C@@H]1CCC(C)=C[C@@H]21 [Δ^9-THC, Δ^9-tetrahydrocannabinol]
2. CCCCCc1cc(O)c(C/C=C(\C)CCC=C(C)C)c(O)c1 [CBG, cannabigerol]

81.2
87.6
